pIC50: −log10 of the molar value.
Below, pIC50 values reported for Leucine-rich repeat serine/threonine-protein kinase 2 (Homo sapiens, UniProt Q5S007) across several publications.
measurement_name: pIC50

smiles_representation: COCCOCc1c(F)cccc1-c1ccc2nc(NC(=O)[C@@H]3C[C@@H]3F)cn2c1
measurement_name: pIC50
endpoint_value: < 6.00

smiles_representation: [2H]C([2H])([2H])N1CCC(n2cc(Nc3ncc(Br)c(NCCCNC(=O)C4CCC4)n3)c(C)n2)CC1
measurement_name: pIC50
endpoint_value: 6.52 to 7.00

smiles_representation: O=C(Nc1cn2cc(-c3ccc4sc(=O)[nH]c4c3)ccc2n1)[C@@H]1C[C@@H]1F
measurement_name: pIC50
endpoint_value: < 6.00

smiles_representation: CN1CCN(c2ccc(Nc3ncc(C(F)(F)F)c(NCCCN4CCOCCC4=O)n3)c(C3CC3)c2)CC1
measurement_name: pIC50
endpoint_value: 7.00 to 9.00

* * *

pIC50: −log10 of the molar value.
Literature survey of pIC50 (system: Leucine-rich repeat serine/threonine-protein kinase 2 (Homo sapiens, UniProt Q5S007)).
measurement_name: pIC50

compound: CCCNc1cc(Nc2ccc(P3(=O)CCN(C4CC4)CC3)cc2OC)nc2[nH]cc(C(F)(F)F)c12
endpoint_value: 6.52 to 7.00
//
compound: Cc1c[nH]c2ncc(-c3ccc4nc(NC(=O)[C@@H]5C[C@@H]5F)cn4c3)cc12
endpoint_value: 6.00 to 7.00
//
compound: CC1CCC(=O)N1CCCNc1nc(Nc2cnn(C3CCN(C4CC4)CC3)c2)ncc1Cl (stereo not shown)
endpoint_value: 6.52 to 7.00
//
compound: Cc1n[nH]c2ncc(-c3nccnc3N3CCCC3)cc12
endpoint_value: < 6.00

* * *

// cross-source set; read-out = pIC50; system = Leucine-rich repeat serine/threonine-protein kinase 2 (Homo sapiens)
pIC50: −log10 of the molar value.

compound: CN1CCN(c2ccc(Nc3ncc(C(F)(F)F)c(NCCCN4CCOCCC4=O)n3)c(Br)c2)CC1
pIC50: 6.52 to 7.00
//
compound: O=C(Nc1cn2cc(-c3cccc(F)c3Cl)ccc2n1)[C@@H]1C[C@@H]1F
pIC50: 7.00 to 8.00
//
compound: Cc1nn(C2CCN(C)C2)cc1Nc1ncc(Br)c(NCCCN2CCCOCC2=O)n1 (stereo not shown)
pIC50: 7.00 to 9.00
//
compound: COc1cc(S(=O)(=O)N2CCC(N3CCOCC3)CC2)ccc1Nc1cc(NC2CCC2)c2c(C(F)(F)F)c[nH]c2n1
pIC50: 6.00 to 6.52
//
compound: Cc1n[nH]c2ncc(Nc3ccc(CN4CCN(C)CC4)cc3)cc12
pIC50: < 6.00
//
compound: Cc1c(F)cccc1-c1ccc2nc(NC(=O)[C@@H]3C[C@@H]3F)c(F)n2c1
pIC50: 6.00 to 7.00
//
compound: CN1CCN(c2ccc(Nc3ncc(C(F)(F)F)c(NCCCNC(=O)C4CCC4)n3)c(C3CC3)c2)CC1
pIC50: 6.52 to 7.00
//
compound: [2H]C([2H])([2H])c1c2c(nn1[C@@H]1CCOC[C@H]1F)OCCCn1nc(Cl)c3cnc(nc31)N2 (single isomer, unassigned)
pIC50: 7.96
//
compound: Clc1nn2c3nc(ncc13)Nc1c(nn(C3CCOCC3)c1C1CC1)OCCC2
pIC50: 7.72
//
compound: CCOC(=O)c1cccc(-c2cnc3[nH]nc(C)c3c2)c1
pIC50: < 6.00
//
compound: CC(C)c1ccc2nc(NC(=O)c3ccc(N4CCOCC4)cc3)sc2c1
pIC50: 5.71
//
compound: CNc1cc(Nc2ccc(C(=O)N3CCC(N4CCOCC4)CC3)c3c2OCO3)nc2[nH]cc(C(F)(F)F)c12
pIC50: > 7.00
//
compound: CCc1cc(N2CC[C@@H](C#N)C2)ccc1Nc1ncc(C(F)(F)F)c(NCCCN2CCCCC2=O)n1
pIC50: 6.52 to 7.00
//
compound: O=S(=O)(c1ccc(Nc2cc(C3CC3)c3c(C(F)(F)F)c[nH]c3n2)c2c1OCCO2)N1CCOCC1
pIC50: 6.00 to 6.52
//
compound: COc1cc(-c2ccnn2C)ccc1Nc1nc(NC2CCCCC2)c2c(C#N)c[nH]c2n1
pIC50: > 6.00
//
compound: CN1C[C@@H]2C[C@H]1CN2c1ccc(Nc2ncc(C(F)(F)F)c(NCCCN3CCOCCC3=O)n2)c(C2CC2)c1
pIC50: 7.00 to 9.00
//
compound: CCc1cc(N2CC[C@H](C#N)C2)ccc1Nc1ncc(C(F)(F)F)c(NCCCN2CCCCC2=O)n1
pIC50: 6.52 to 7.00
//
compound: CC1(Oc2ccc3[nH]nc(-c4cc(N5CCN(C(=O)CCOCCOCCOCCOCCNc6cccc7c6C(=O)N(C6CCC(=O)NC6=O)C7=O)CC5)ncn4)c3c2)CC1 (stereo not shown)
pIC50: 8.84
//
compound: CCc1nn(C2CCN(C(C)C)CC2)cc1Nc1ncc(Cl)c(NCCCN2CCCOC2=O)n1
pIC50: 6.22 to 6.52
//
compound: CN1CCC(n2cc(Nc3ncc(C4CC4)c(NCCCN4CCN(C)C4=O)n3)cn2)CC1
pIC50: < 6.22
//
compound: Cc1cc(N2CCN(C)CC2)ncc1Nc1ncc(C(F)(F)F)c(NCCCNC(=O)C2CCC2)n1
pIC50: 4.70 to 6.22
//
compound: Cc1c(-c2ccc3nc(NC(=O)[C@@H]4C[C@@H]4F)cn3c2)ccc(Cl)c1F
pIC50: 6.00 to 7.00
//
compound: COc1cc(S(=O)(=O)N2CCC(N3CCOCC3)CC2)ccc1Nc1cc(NCCS(C)(=O)=O)c2c(C(F)(F)F)c[nH]c2n1
pIC50: > 7.00
//
compound: Cc1nn(C(C)(C)C#N)cc1Nc1ncc(C(F)(F)F)c(NCCCN2CCCOCC2=O)n1
pIC50: 7.00 to 9.00
//
compound: COc1cc(S(C)(=O)=O)ccc1Nc1cc(NC2CCCC2)c2c(C#N)c[nH]c2n1
pIC50: > 7.00
//
compound: CNc1cc(Nc2ccc(C(=O)N3CCC(N4CCOCC4)CC3)c3c2OCCO3)nc2[nH]cc(C#N)c12
pIC50: > 7.00
//
compound: Cc1ccc(-n2cccn2)cc1-c1ccc2nc(NC(=O)[C@@H]3C[C@@H]3F)cn2c1
pIC50: 6.00 to 7.00
//
compound: Cc1nn(C2CCNCC2)cc1Nc1ncc(C2CC2)c(NCCCNC(=O)C2CCC2)n1
pIC50: 4.70 to 6.22
//
compound: CSc1ccc(OC(F)F)c(-c2nn(CC(=O)N3CCC(NCC(C)(C)C#N)CC3)cc2NC(=O)c2cnn3cccnc23)c1
pIC50: 5.47
//
compound: Cc1cn(C2CCN(C)CC2)nc1Nc1ncc(C(F)(F)F)c(NCCCN2CCCOC2=O)n1
pIC50: < 6.22
//
compound: Fc1c[nH]c2ncc(-c3cncc(N4CCOCC4)n3)cc12
pIC50: > 6.30
